Catalogue of molecules with associated melting point

Study these solved cases before continuing.
| molecule | observable | result |
| --- | --- | --- |
| COc1ccc(-n2cc(F)c(/N=C/N(C)C)nc2=O)cc1OC [Compound 57] | melting point | 196.1 to 198 °C |
| CSCn1cc(F)c(/N=C/N(C)C)nc1=O [Compound 24] | melting point | 132 to 136 °C |
| CCCC(=O)OCn1cc(F)c(/N=C/N(C)C)nc1=O [Compound 13] | melting point | 109 to 111 °C |

query: Return value of melting point for input C[Si](C)(C)CCOCn1cc(F)c(N)nc1=O [Compound 17] , no commentary.
result: 187 to 192 °C

query: Return value of melting point for input C=Cn1cc(F)c(NCc2ccccc2F)nc1=O [Compound 67] , no commentary.
result: 168.6 to 169.1 °C

query: Return value of melting point for input COc1ccc(-n2cc(F)c(NCc3ccccc3F)nc2=O)cc1OC [Compound 66] , no commentary.
result: 206.3 to 207.9 °C

* * *

Catalogue of molecules with associated melting point

| molecule | melting point |
| --- | --- |
| C=C(c1ccccc1)n1cc(F)c(N)nc1=O [Compound 52] | 211.2 to 213 °C |
| CCCC(=O)OCn1cc(F)c(N)nc1=O [Compound 21] | 210 to 214 °C |
| Nc1nc(=O)n(CCCCI)cc1F [Compound 26] | 181 to 184 °C |
| CCOC(=O)OC(C)n1cc(F)c(N)nc1=O (centres unmarked) [Compound 23] | 162 to 166 °C |
| CCOCCn1cc(F)c(NC(=O)c2cccs2)nc1=O [Compound 100] | 109 to 110.4 °C |
| C=Cn1cc(F)c(N)nc1=O [Compound 41] | 213.5 to 214.4 °C |
| Nc1nc(=O)n(/C=C/Cc2ccccc2)cc1F [Compound 49] | 212 to 214 °C |

Shift focus to the following entry.
query: Return value of melting point for input CS(=O)(=O)c1ccc(-n2cc(F)c(N)nc2=O)cc1 [Compound 50] , no commentary.
result: 244.4 to 245.7 °C

Data provenance is patent US8916579B2.
